Measured values drawn from paper PMC13164762 for this set.

Test: Biodistribution and brain penetration after PO dose
Type: in vivo, balb/c mice
Conditions: male, BALB/c, mouse, brain, po, 10 mg kg^−1, 24 h, PO 10 mg kg^−1; estimated with fu,brain = 0.057; read-out: Unbound Brain Content
test.readout: concentration at 24 h (ng/g)

>>> test_result("Nc1nc2cc(CC[C@H]3C[C@@H](n4ccc5c(N)ncnc54)[C@H](O)[C@@H]3O)ccc2cc1Br")
1.3

* * *

Experiment: Blood-to-plasma ratio (Rb/p) study
Type: in vitro ADME
Details: balb/c mouse whole blood
test.readout: blood plasma ratio at 5 µg mL^−1

>>> test_result("Nc1nc2cc(CC[C@H]3C[C@@H](n4ccc5c(N)ncnc54)[C@H](O)[C@@H]3O)ccc2cc1Br")
"~0.7"

* * *

Test: Biodistribution and brain penetration after PO dose
Assay type: in vivo, balb/c mice
Conditions: male, BALB/c, mouse, spleen, po, 10 mg kg^−1, 2 h after single PO 10 mg kg^−1, balb/c mice, n = 4; read-out: Content, Spleen
test.readout: concentration at 2 h (ng/g)

>>> test_result("Nc1nc2cc(CC[C@H]3C[C@@H](n4ccc5c(N)ncnc54)[C@H](O)[C@@H]3O)ccc2cc1Br [JNJ, JNJ-64619178]")
1900

* * *

Assay: Biodistribution and brain penetration after PO dose
Assay type: in vivo, balb/c mice
Conditions: male, BALB/c, mouse, brain, po, 10 mg kg^−1, 8 h after single PO 10 mg kg^−1, balb/c mice, n = 4; read-out: Brain Content
test.readout: concentration at 8 h (ng/g)

>>> test_result("Nc1nc2cc(CC[C@H]3C[C@@H](n4ccc5c(N)ncnc54)[C@H](O)[C@@H]3O)ccc2cc1Br [JNJ, JNJ-64619178]")
34

* * *

Assay: In vivo PK study (plasma, IV and PO)
Design: species or system balb/c mice
Conditions: male, balb/c, mouse, plasma, po, 10 mg/kg, PO 10 mg kg^−1, balb/c mice, plasma, n = 4; read-out: Tmax (converted)
test.readout: Tmax (min)

>>> test_result("Nc1nc2cc(CC[C@H]3C[C@@H](n4ccc5c(N)ncnc54)[C@H](O)[C@@H]3O)ccc2cc1Br [JNJ, JNJ-64619178]")
25.2

* * *

Assay: Biodistribution and brain penetration after PO dose
Format: in vivo, balb/c mice
Conditions: male, BALB/c, mouse, liver, po, 10 mg kg^−1, 8 h after single PO 10 mg kg^−1, balb/c mice, n = 4; read-out: Content, Liver
test.readout: concentration at 8 h

>>> test_result("Nc1nc2cc(CC[C@H]3C[C@@H](n4ccc5c(N)ncnc54)[C@H](O)[C@@H]3O)ccc2cc1Br")
"1190 ng/g"

* * *

Experiment: In vivo PK study (plasma, IV and PO)
Set-up: species or system balb/c mice
Conditions: male, mouse; IV 2.5 mg kg^−1, balb/c mice, plasma, n = 6
test.readout: Cmax (ng/mL)

>>> test_result("Nc1nc2cc(CC[C@H]3C[C@@H](n4ccc5c(N)ncnc54)[C@H](O)[C@@H]3O)ccc2cc1Br")
4940

* * *

Assay: In vivo PK study (plasma, IV and PO)
Set-up: species or system balb/c mice
Details: male, mouse; IV 2.5 mg kg^−1, balb/c mice, plasma, n = 6
Method: We performed in vivo PK analysis for JNJ by 2.5 mg kg^−1 IV and 10 mg kg^−1 PO routes of administration in healthy male balb/c mice. We could quantify a dynamic range of concentrations in in vivo PK samples with our established LC-MS/MS method. Non-compartmental analysis (NCA) was performed using Phoenix software version 8.3 to estimate PK parameters from the observed plasma concentration–time profile data. […] The NCA PK parameter data are represented in Table 6. […]
test.readout: AUC (ng·h/mL)

>>> test_result("Nc1nc2cc(CC[C@H]3C[C@@H](n4ccc5c(N)ncnc54)[C@H](O)[C@@H]3O)ccc2cc1Br")
11600
